B1: IFRG15 (parent)
chain: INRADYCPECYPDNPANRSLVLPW

Variants of: B1
Protocol notes: protein stability index of a GFP-peptide fusion (GPS, HEK-293T) (PSI 1-6); higher = more stable;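 also: lentivirally expressed fusions sorted by FACS into six bins by GFP to DsRed ratio, PSI derived from sequencing read proportions per bin multiplied by bin number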
Test conditions: c terminus: a fixed tail appended
# binarize protein stability index: threshold 2 inclusive, high side 1.0, low side 0.0

Reference set, count: 10
>>> print(df.to_string())
   alteration  classification
0        L20G             1.0
1        S19F             0.0
2         R3T             1.0
3         N2C             1.0
4         Y6W             1.0
5         C7R             1.0
6        N17D             1.0
7        L20N             1.0
8        S19T             0.0
9        R18I             0.0

// inclusive: protein stability index at least 2? input: R18A
1.0

What do we get for E9I ?
0.0

Here is the next variant: Y6R
1.0
